# TARGET DESC: hCA II (Homo sapiens, UniProt P00918)
# Construct: gene CA2; recombinant, obtained in-house; cytosolic
# METHOD SUMMARY: stopped-flow CO2 hydration assay, phenol red
# Type: biochemical
pKi: −log10 of the molar value.
QUANTITY NAME: pKi

See these solved cases before continuing.
CHEMICAL STRUCTURE	OBSERVED MEASUREMENT
C[C@]12CC[C@@H](O)C[C@@H]1CC[C@@H]1[C@@H]2CC[C@]2(C)C(=O)CC[C@@H]12	< 4.00
C[C@]12CC[C@H]3[C@@H](CCC4=CC(=O)CC[C@@]43C)[C@@H]1CC[C@@H]2O	< 4.00

Consider `C[C@]12CCC(=O)C[C@@H]1CC[C@@H]1[C@@H]2CC[C@]2(C)[C@@H](O)CC[C@@H]12` . Its measured pKi is < 4.00

====

# TARGET DESC: hCA I (Homo sapiens)
# Construct: gene CA1; recombinant, obtained in-house; cytosolic
# Sequence (P00915 2-261): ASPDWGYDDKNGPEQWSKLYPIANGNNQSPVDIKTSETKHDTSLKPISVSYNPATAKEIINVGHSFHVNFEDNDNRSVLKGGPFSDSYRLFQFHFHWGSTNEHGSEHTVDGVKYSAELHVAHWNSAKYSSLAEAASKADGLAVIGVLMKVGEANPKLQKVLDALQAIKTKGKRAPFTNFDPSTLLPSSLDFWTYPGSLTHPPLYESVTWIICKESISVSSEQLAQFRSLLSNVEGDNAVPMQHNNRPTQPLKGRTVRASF
# METHOD SUMMARY: stopped-flow CO2 hydration assay, phenol red
# Format: biochemical
# ASSAY CONTEXT: read-out: hCAI
QUANTITY NAME: Ki

Please review the entries below; each comes with its answer.
MOLECULE	Ki
C[C@H](CCC(=O)O)[C@H]1CC[C@H]2[C@@H]3CC[C@@H]4C[C@H](O)CC[C@]4(C)[C@H]3C[C@H](O)[C@]12C [compound 4, Deoxycholic acid]	> 100 µM
CC(=O)[C@H]1CC[C@H]2[C@@H]3CCC4=CC(=O)CC[C@]4(C)[C@H]3[C@H](O)C[C@]12C [compound 18, 11α-Hydroxyprogesterone]	> 100 µM
C[C@@H]1CC[C@@]2(OC1)O[C@H]1C[C@H]3[C@@H]4CC=C5C[C@@H](O)CC[C@]5(C)[C@H]4CC[C@]3(C)[C@H]1[C@@H]2C [compound 22, Diosgenin]	> 100 µM
C[C@H](CCC(=O)O)[C@H]1CC[C@H]2[C@@H]3[C@@H](O)C[C@@H]4C[C@H](O)CC[C@]4(C)[C@H]3CC[C@]12C [compound 5, Ursodeoxycholic acid]	95.9 µM
C[C@]12CC[C@@H]3c4ccc(O)cc4CC[C@H]3[C@@H]1CC[C@H]2O [compound 19, α-Estradiol]	87.8 µM

Give me Ki for each of these molecules, listed below.
1. CC(=O)[C@H]1CC[C@H]2[C@@H]3CCC4=CC(=O)CC[C@]4(C)[C@H]3CC[C@]12C [compound 17, Progesterone]
2. C[C@H](CCC(=O)O)[C@H]1CC[C@H]2[C@@H]3C[C@H](O)[C@@H]4C[C@H](O)CC[C@]4(C)[C@H]3CC[C@]12C [compound 8, Hyodeoxycholic acid]
3. C[C@H](CCC(=O)O)[C@H]1CC[C@H]2[C@@H]3CC[C@@H]4C[C@H](O)CC[C@]4(C)[C@H]3CC[C@]12C [compound 3, Lithocholic acid]
4. C[C@]12CCC(=O)C=C1CC[C@@H]1[C@@H]2[C@@H](O)C[C@@]2(C)[C@H]1CC[C@]2(O)C(=O)CO [compound 21, Hydrocortisone]
5. CC(C)CCC[C@@H](C)[C@H]1CC[C@H]2[C@@H]3CC=C4C[C@@H](O)CC[C@]4(C)[C@H]3CC[C@]12C [compound 11, Cholesterol]
6. C[C@H](CCC(=O)NCC(=O)O)[C@H]1CC[C@H]2[C@@H]3[C@@H](O)C[C@@H]4C[C@H](O)CC[C@]4(C)[C@H]3CC[C@]12C [compound 6, Glycoursodeoxycholic acid]
7. C[C@]12CC[C@@H]3c4ccc(O)cc4CC[C@H]3[C@@H]1CCC2=O [compound 20, Estron]
8. C[C@H](CCC(=O)NCCS(=O)(=O)O)[C@H]1CC[C@H]2[C@@H]3[C@@H](O)C[C@@H]4C[C@H](O)CC[C@]4(C)[C@H]3CC[C@]12C [compound 7, Tauroursodeoxycholic acid]

1. > 100 µM
2. > 100 µM
3. > 100 µM
4. > 100 µM
5. > 100 µM
6. > 100 µM
7. > 100 µM
8. > 100 µM

====

Task for the reader: assign each of the following molecules its reported Ki.
# TARGET DESC: hCA I (Homo sapiens)
# Construct: gene CA1; recombinant, obtained in-house; cytosolic
# METHOD SUMMARY: stopped-flow CO2 hydration assay, phenol red
# Type: biochemical
# ASSAY CONTEXT: read-out: hCAI

Reference set (4 entries):
MOLECULE	Ki
C[C@H](CCC(=O)O)[C@H]1CC[C@H]2[C@@H]3C(=O)C[C@@H]4CC(=O)CC[C@]4(C)[C@H]3CC(=O)[C@]12C [compound 10, Dehydrocholic acid]	> 100 µM
C[C@H](CCC(=O)O)[C@H]1CC[C@H]2[C@@H]3[C@H](O)[C@H](O)[C@@H]4C[C@H](O)CC[C@]4(C)[C@H]3CC[C@]12C [compound 9, Hyocholic acid]	83.3 µM
CC(C)CCC[C@@H](C)[C@H]1CC[C@H]2[C@@H]3CC[C@@H]4C[C@@H](O)CC[C@]4(C)[C@H]3CC[C@]12C [compound 12, Coprostan-3-ol]	> 100 µM
C[C@H](CCC(=O)O)[C@H]1CC[C@H]2[C@@H]3[C@H](O)C[C@@H]4C[C@H](O)CC[C@]4(C)[C@H]3C[C@H](O)[C@]12C [compound 2, Cholic acid]	> 100 µM

Give measured Ki for every item shown.
1. C[C@]12CC[C@H](O)CC1=CC[C@@H]1[C@@H]2CC[C@]2(C)C(=O)CC[C@@H]12 [compound 15, Trans-dehydroandrosterone]
2. C[C@H](CCC(=O)O)[C@H]1CC[C@H]2[C@@H]3[C@H](O)C[C@@H]4C[C@H](O)CC[C@]4(C)[C@H]3CC[C@]12C [compound 1, Chenodeoxycholic acid]

> 100 µM
> 100 µM

Measured values drawn from paper PMC7011995 for this set.
